B1: TPR 5TU (parent)
chain: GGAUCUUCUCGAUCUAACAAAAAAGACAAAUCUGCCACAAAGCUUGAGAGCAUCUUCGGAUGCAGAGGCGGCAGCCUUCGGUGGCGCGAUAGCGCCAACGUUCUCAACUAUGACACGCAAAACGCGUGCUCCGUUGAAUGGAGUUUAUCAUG

- Variants of: B1
- Protocol details: polymerase ribozyme fitness, log enrichment relative to wild type (log ratio); higher = more active; in vitro selection for triplet polymerase activity
This sample holds only a part of the variants without activity.
Readout kind: polymerase ribozyme fitness (log ratio)

# annotated cases, reported polymerase ribozyme fitness (log ratio) shown
Mutant name: C103G U145G
polymerase ribozyme fitness (log ratio): -1.87

Mutant name: U7G A21C C36U C54U C79G G83A U144A
polymerase ribozyme fitness (log ratio): ≤ -4.2

Mutant name: U53A G59A G84U
polymerase ribozyme fitness (log ratio): -1.32

Asked: // returns reported polymerase ribozyme fitness (log ratio) for input G71U A142C
Given back: ≤ -4.2

Asked: State the recorded polymerase ribozyme fitness (log ratio) for this entry: A60C C85A C125G U144G
Given back: -2.67

Asked: Requested field: polymerase ribozyme fitness (log ratio). Item: A29U A60G C76A
Given back: ≤ -4.2

Asked: Using the record for A21C A60U , report its polymerase ribozyme fitness (log ratio).
Given back: -0.52

Asked: Please give the measured polymerase ribozyme fitness (log ratio) for this variant: A122G U144G
Given back: 0.851

Asked: Value lookup for polymerase ribozyme fitness (log ratio); key = U15C C57U G59A G68U G84C C129A
Given back: ≤ -4.2

Taken from the RNAGym collection of RNA variant scans (doi:10.1073/pnas.2313332121).
